# condition: in ethylbenzene, 280.09 K
measurement_name: solubility (mole fraction)
Response field accepts a number only; no unit should be typed.

Prompt: Reported solubility (mole fraction), molecule CCCCCCCCCCCCCCCCCCCCCCC : ____
Completion: 0.0136

* * *

# condition: in ethylbenzene, 289.67 K
measurement_name: solubility (mole fraction)

Prompt: Reported solubility (mole fraction), compound CCCCCCCCCCCCCCCCCCCC : ____
Completion: 0.136

* * *

# condition: in ethylbenzene, 284.97 K
measurement_name: solubility (mole fraction)
Response field accepts a number only; no unit should be typed.

Prompt: Reported solubility (mole fraction), compound CCCCCCCCCCCCCCCCCCCC : ____
Completion: 0.0791

* * *

# condition: in ethylbenzene, 289.1 K
measurement_name: solubility (mole fraction)
Response field accepts a number only; no unit should be typed.

Prompt: Reported solubility (mole fraction), compound CCCCCCCCCCCCCCCCCCCCCCCC : ____
Completion: 0.0224

* * *

# condition: in ethylbenzene, 297.34 K
measurement_name: solubility (mole fraction)
Response field accepts a number only; no unit should be typed.

Prompt: Reported solubility (mole fraction), compound CCCCCCCCCCCCCCCCCCCCCCC : ____
Completion: 0.124

* * *

# condition: in ethylbenzene, 302.03 K
measurement_name: solubility (mole fraction)

Prompt: Reported solubility (mole fraction), compound CCCCCCCCCCCCCCCCCCCCCC : ____
Completion: 0.213

* * *

# condition: in ethylbenzene, 281.94 K
measurement_name: solubility (mole fraction)
Response field accepts a number only; no unit should be typed.

Prompt: Reported solubility (mole fraction), compound CCCCCCCCCCCCCCCCCCCC : ____
Completion: 0.0536

* * *

# condition: in ethylbenzene, 288.45 K
measurement_name: solubility (mole fraction)
Response field accepts a number only; no unit should be typed.

Prompt: Reported solubility (mole fraction), molecule CCCCCCCCCCCCCCCCCCCCC : ____
Completion: 0.115

* * *

# condition: in ethylbenzene, 295.02 K
measurement_name: solubility (mole fraction)
Response field accepts a number only; no unit should be typed.

Prompt: Reported solubility (mole fraction), compound CCCCCCCCCCCCCCCCCCCCCCC : ____
Completion: 0.094

* * *

# condition: in ethylbenzene, 287.19 K
measurement_name: solubility (mole fraction)
Response field accepts a number only; no unit should be typed.

Prompt: Reported solubility (mole fraction), compound CCCCCCCCCCCCCCCCCCCC : ____
Completion: 0.104

* * *

# condition: in ethylbenzene, 296 K
measurement_name: solubility (mole fraction)
Response field accepts a number only; no unit should be typed.

Prompt: Reported solubility (mole fraction), compound CCCCCCCCCCCCCCCCCCCCCCCC : ____
Completion: 0.0511

* * *

# condition: in ethylbenzene, 292.61 K
measurement_name: solubility (mole fraction)
Response field accepts a number only; no unit should be typed.

Prompt: Reported solubility (mole fraction), compound CCCCCCCCCCCCCCCCCCCCCCC : ____
Completion: 0.0698

* * *

# condition: in ethylbenzene, 286.6 K
measurement_name: solubility (mole fraction)

Prompt: Reported solubility (mole fraction), compound CCCCCCCCCCCCCCCCCCCCC : ____
Completion: 0.095

* * *

# condition: in ethylbenzene, 291.7 K
measurement_name: solubility (mole fraction)
Response field accepts a number only; no unit should be typed.

Prompt: Reported solubility (mole fraction), molecule CCCCCCCCCCCCCCCCCCCCCC : ____
Completion: 0.0702

* * *

# condition: in ethylbenzene, 297.87 K
measurement_name: solubility (mole fraction)

Prompt: Reported solubility (mole fraction), compound CCCCCCCCCCCCCCCCCCCCCC : ____
Completion: 0.143

* * *

# condition: in ethylbenzene, 294.57 K
measurement_name: solubility (mole fraction)

Prompt: Reported solubility (mole fraction), compound CCCCCCCCCCCCCCCCCCCCC : ____
Completion: 0.235

* * *

# condition: in ethylbenzene, 277.47 K
measurement_name: solubility (mole fraction)
Response field accepts a number only; no unit should be typed.

Prompt: Reported solubility (mole fraction), molecule CCCCCCCCCCCCCCCCCCCCCC : ____
Completion: 0.0123

* * *

# condition: in ethylbenzene, 284.95 K
measurement_name: solubility (mole fraction)
Response field accepts a number only; no unit should be typed.

Prompt: Reported solubility (mole fraction), compound CCCCCCCCCCCCCCCCCCCCC : ____
Completion: 0.0739

* * *

# condition: in ethylbenzene, 293.53 K
measurement_name: solubility (mole fraction)

Prompt: Reported solubility (mole fraction), molecule CCCCCCCCCCCCCCCCCCCCCC : ____
Completion: 0.0865

* * *

# condition: in ethylbenzene, 272.73 K
measurement_name: solubility (mole fraction)
Response field accepts a number only; no unit should be typed.

Prompt: Reported solubility (mole fraction), compound CCCCCCCCCCCCCCCCCCCC : ____
Completion: 0.0195

* * *

# condition: in ethylbenzene, 281.39 K
measurement_name: solubility (mole fraction)
Response field accepts a number only; no unit should be typed.

Prompt: Reported solubility (mole fraction), compound CCCCCCCCCCCCCCCCCCCCCC : ____
Completion: 0.0202

* * *

# condition: in ethylbenzene, 282.8 K
measurement_name: solubility (mole fraction)
Response field accepts a number only; no unit should be typed.

Prompt: Reported solubility (mole fraction), compound CCCCCCCCCCCCCCCCCCCC : ____
Completion: 0.0614

* * *

# condition: in ethylbenzene, 271.13 K
measurement_name: solubility (mole fraction)
Response field accepts a number only; no unit should be typed.

Prompt: Reported solubility (mole fraction), compound CCCCCCCCCCCCCCCCCCCCCCC : ____
Completion: 0.00366

* * *

# condition: in ethylbenzene, 266.52 K
measurement_name: solubility (mole fraction)
Response field accepts a number only; no unit should be typed.

Prompt: Reported solubility (mole fraction), compound CCCCCCCCCCCCCCCCCCCC : ____
Completion: 0.00955

* * *

# condition: in ethylbenzene, 289.51 K
measurement_name: solubility (mole fraction)

Prompt: Reported solubility (mole fraction), compound CCCCCCCCCCCCCCCCCCCCCC : ____
Completion: 0.0539

* * *

# condition: in ethylbenzene, 295.46 K
measurement_name: solubility (mole fraction)
Response field accepts a number only; no unit should be typed.

Prompt: Reported solubility (mole fraction), compound CCCCCCCCCCCCCCCCCCCCCC : ____
Completion: 0.107

* * *

# condition: in ethylbenzene, 298.81 K
measurement_name: solubility (mole fraction)
Response field accepts a number only; no unit should be typed.

Prompt: Reported solubility (mole fraction), molecule CCCCCCCCCCCCCCCCCCCCCC : ____
Completion: 0.256

* * *

# condition: in ethylbenzene, 278.56 K
measurement_name: solubility (mole fraction)
Response field accepts a number only; no unit should be typed.

Prompt: Reported solubility (mole fraction), molecule CCCCCCCCCCCCCCCCCCCCC : ____
Completion: 0.0366

* * *

# condition: in ethylbenzene, 301.25 K
measurement_name: solubility (mole fraction)
Response field accepts a number only; no unit should be typed.

Prompt: Reported solubility (mole fraction), compound CCCCCCCCCCCCCCCCCCCCCC : ____
Completion: 0.198

* * *

# condition: in ethylbenzene, 272.02 K
measurement_name: solubility (mole fraction)
Response field accepts a number only; no unit should be typed.

Prompt: Reported solubility (mole fraction), compound CCCCCCCCCCCCCCCCCCCCCCCC : ____
Completion: 0.00269

* * *

# condition: in ethylbenzene, 291.27 K
measurement_name: solubility (mole fraction)

Prompt: Reported solubility (mole fraction), molecule CCCCCCCCCCCCCCCCCCCC : ____
Completion: 0.164

* * *

# condition: in ethylbenzene, 302.44 K
measurement_name: solubility (mole fraction)
Response field accepts a number only; no unit should be typed.

Prompt: Reported solubility (mole fraction), compound CCCCCCCCCCCCCCCCCCCCCC : ____
Completion: 0.226

* * *

# condition: in ethylbenzene, 300.52 K
measurement_name: solubility (mole fraction)

Prompt: Reported solubility (mole fraction), compound CCCCCCCCCCCCCCCCCCCCCCC : ____
Completion: 0.173

* * *

# condition: in ethylbenzene, 278.21 K
measurement_name: solubility (mole fraction)
Response field accepts a number only; no unit should be typed.

Prompt: Reported solubility (mole fraction), compound CCCCCCCCCCCCCCCCCCCC : ____
Completion: 0.0364

* * *

# condition: in ethylbenzene, 299.02 K
measurement_name: solubility (mole fraction)
Response field accepts a number only; no unit should be typed.

Prompt: Reported solubility (mole fraction), compound CCCCCCCCCCCCCCCCCCCCCCCC : ____
Completion: 0.0732

* * *

# condition: in ethylbenzene, 291.15 K
measurement_name: solubility (mole fraction)
Response field accepts a number only; no unit should be typed.

Prompt: Reported solubility (mole fraction), compound CCCCCCCCCCCCCCCCCCCCC : ____
Completion: 0.164

* * *

# condition: in ethylbenzene, 285.62 K
measurement_name: solubility (mole fraction)
Response field accepts a number only; no unit should be typed.

Prompt: Reported solubility (mole fraction), compound CCCCCCCCCCCCCCCCCCCCCCCC : ____
Completion: 0.0142
